# Tested on: LOC_OS04G41100-cb001;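 also: purified Escherichia coli-expressed rice kinase domain construct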
# Sequence (whole entry): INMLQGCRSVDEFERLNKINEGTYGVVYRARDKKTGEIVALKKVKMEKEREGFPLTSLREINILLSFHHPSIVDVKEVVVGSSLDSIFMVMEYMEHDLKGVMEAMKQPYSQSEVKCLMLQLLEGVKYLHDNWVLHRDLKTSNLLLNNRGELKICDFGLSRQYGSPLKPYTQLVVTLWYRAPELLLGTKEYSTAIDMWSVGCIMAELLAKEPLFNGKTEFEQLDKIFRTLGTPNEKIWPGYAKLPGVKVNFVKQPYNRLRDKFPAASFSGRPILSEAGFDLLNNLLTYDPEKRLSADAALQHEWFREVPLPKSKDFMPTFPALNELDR
# run.description: thermal shift delta Tm vs DMSO control; higher = stronger stabilization (binding)
# experimental.setup: 12.5 µM; protein concentration 2 µM
thermal shift delta Tm values, listed per item

Below: 2 compounds and their reported thermal shift delta Tm.
{"columns": ["structure.string", "study.system", "value.observed"],
 "data": [
  ["COc1ccc(S(=O)(=O)N(C(C)=O)c2ccccc2/C=C/c2cc[n+]([O-])cc2)cc1", "LOC_OS04G41100-cb001", "0.61 °C"],
  ["COc1ccc(Oc2cc(NCCC(F)(F)F)c3ncc(-c4ccc(C(=O)NC5CC5)c(C)c4)n3n2)c(F)c1F", "LOC_OS04G41100-cb001", "0.4 °C"]
]}

Please examine the following record next.
Prompt: Recorded thermal shift delta Tm for Nc1nc(N)c(N=O)c(OCC2CCCCC2)n1 with LOC_OS04G41100-cb001, please?
Completion: 0.59 °C
